# target_entity: COX-2 (Homo sapiens, UniProt P35354)
# Construct: endogenous in cells; host or cells: human whole blood from volunteers, stimulated with LPS
# Sequence (P35354 18-604): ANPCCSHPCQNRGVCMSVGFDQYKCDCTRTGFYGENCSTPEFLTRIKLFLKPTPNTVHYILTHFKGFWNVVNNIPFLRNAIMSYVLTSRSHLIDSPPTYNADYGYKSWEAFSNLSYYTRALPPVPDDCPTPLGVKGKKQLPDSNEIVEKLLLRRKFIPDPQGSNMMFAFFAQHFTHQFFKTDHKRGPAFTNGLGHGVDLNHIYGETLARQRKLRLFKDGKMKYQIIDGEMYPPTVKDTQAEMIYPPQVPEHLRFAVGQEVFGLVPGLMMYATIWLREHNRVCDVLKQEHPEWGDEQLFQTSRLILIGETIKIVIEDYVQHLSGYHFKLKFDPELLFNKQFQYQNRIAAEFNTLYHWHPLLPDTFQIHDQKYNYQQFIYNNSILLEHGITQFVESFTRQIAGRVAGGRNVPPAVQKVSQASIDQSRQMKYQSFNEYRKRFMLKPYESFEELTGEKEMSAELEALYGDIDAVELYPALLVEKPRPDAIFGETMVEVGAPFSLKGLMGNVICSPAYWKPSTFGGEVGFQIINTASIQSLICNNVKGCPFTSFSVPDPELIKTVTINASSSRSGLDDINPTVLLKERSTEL
# test_protocol: Assay for in vitro COX-2 inhibition in LPS-stimulated human whole blood (PGE2 by EIA)
# Assay type: cell-based
# reported_conditions: human whole blood; compound 0.1 to 25 μM, 15 minutes at 37° C.; LPS 100 μg/mL for 24 h; PGE2 levels in plasma by EIA
Known IC50 of a selection of compounds

Look over these answered cases.
>  <compound_structure_string>
CS(=O)(=O)c1ccc(-c2c(-c3ccc(F)cc3)nc3ncccn23)cc1

>  <meas_value>
2.9 µM

$$$$
>  <compound_structure_string>
COc1ccc(-c2nc3ccccn3c2-c2ccc(S(C)(=O)=O)cc2)cc1Cl

>  <meas_value>
6.8 µM

$$$$
>  <compound_structure_string>
CS(=O)(=O)c1ccc(-c2c(-c3ccc(Cl)cc3)nc3ncccn23)cc1

>  <meas_value>
> 10 µM

$$$$
>  <compound_structure_string>
COc1ccc(-c2nc3ncccn3c2-c2ccc(S(C)(=O)=O)cc2)cc1C

>  <meas_value>
2.2 µM

$$$$
>  <compound_structure_string>
COc1ccc(-c2nc3ccccn3c2-c2ccc(S(C)(=O)=O)cc2)cc1C

>  <meas_value>
1 µM

$$$$

Which measured IC50 value corresponds to `COc1ccc(-c2nc3ncccn3c2-c2ccc(S(C)(=O)=O)cc2)cc1Cl` ?
3.9 µM

Entry `CCOc1ccc(-c2nc3ncccn3c2-c2ccc(S(C)(=O)=O)cc2)cc1` please
1 µM

Entry `Cc1ccc(-c2nc3ncccn3c2-c2ccc(S(C)(=O)=O)cc2)cc1C` please
2.8 µM

Entry `COc1ccc(-c2nc3ccccn3c2-c2ccc(S(C)(=O)=O)cc2)cc1` please
3.3 µM
